molecular target: LTD4 evoked ileal contractions (Cavia porcellus); construct: A section of terminal ileum was removed, the lumen cleaned, and the tissue divided into 2.5 cm. segments; from tissue; host or cells: terminal ileum of male Hartley guinea pigs; assay: Antagonism of LTD4-evoked contraction of isolated guinea pig ileum (single concentration); type: cell-based; conditions: 3 × 10^-6 M, pure LTD4, 5 minute exposure, read-out: Percent Inhibition of LTD4 evoked ileal contractions
Counter-ions that a name gives are not always drawn.
# inhibition at 3 µM annotations
Endpoint Label: inhibition at 3 µM (%)

>>> assay_value("CCCc1c(OCCCCCCCCCCc2nnn[nH]2)ccc(C(C)=O)c1O")
93
>>> assay_value("CCCc1c(OCCCCCCN)ccc(C(C)=O)c1O [Example 36, hydrochloride]")
42
>>> assay_value("CCCc1c(OC(C)CCCCC(=O)O)ccc(C(C)=O)c1O (centres unmarked)")
45
>>> assay_value("CCCc1c(OCCCCCCCCCCC(=O)O)ccc(C(C)=O)c1O")
79
>>> assay_value("CCCc1c(OCCCCCCc2nnn[nH]2)ccc(C(C)=O)c1O")
100
>>> assay_value("CCCc1c(OCCCCC(C)(C)C(=O)O)ccc(C(C)=O)c1O")
73
>>> assay_value("C=CCc1c(OCCCCCC(=O)O)ccc(C(C)=O)c1O")
29
>>> assay_value("CCCc1c(OCCCCCCCCCc2nnn[nH]2)ccc(C(C)=O)c1O")
90
>>> assay_value("CC(=O)c1ccc(OC(CCCCC(=O)O)c2ccc(Cc3ccccc3)cc2)cc1O (centres unmarked)")
70
>>> assay_value("CCCc1c(OCCCCCCN(C)C)ccc(C(C)=O)c1O [Example 38, hydrochloride]")
30
>>> assay_value("CCCc1c(OCCCCCCCc2nnn[nH]2)ccc(C(C)=O)c1O")
95
>>> assay_value("CCCc1c(OCCCCC(=O)OCC)ccc(C(C)=O)c1O")
56
>>> assay_value("CC(=O)c1ccc(OC(CCCCC(=O)O)c2ccc(-c3ccccc3)cc2)cc1O (centres unmarked)")
34
>>> assay_value("CCCc1c(OCCCCCC(=O)O)ccc(C(=O)CC)c1O")
56
>>> assay_value("CCCc1c(OCCCCc2nnn[nH]2)ccc(C(C)=O)c1O")
100
>>> assay_value("CCCc1c(OCCCCc2nnn[nH]2)ccc(C(=O)c2ccccc2)c1O")
56
>>> assay_value("CCCc1c(OCCCCCCCCCC(=O)O)ccc(C(C)=O)c1O")
85
>>> assay_value("CCCc1c(OCCCCCC(=O)O)ccc(C(C)=O)c1O")
81
>>> assay_value("CCCc1c(OCCCCC(=O)N(C)C)ccc(C(C)=O)c1O")
42
>>> assay_value("CC(=O)c1ccc(OC(C)CCCCC(=O)O)cc1O (centres unmarked)")
10

---

Target: LTD4 evoked ileal contractions (Cavia porcellus, UniProt Q2NNR5)
Construct: A section of terminal ileum was removed, the lumen cleaned, and the tissue divided into 2.5 cm. segments; from tissue; host or cells: terminal ileum of male Hartley guinea pigs
Sequence (Q2NNR5 1-340): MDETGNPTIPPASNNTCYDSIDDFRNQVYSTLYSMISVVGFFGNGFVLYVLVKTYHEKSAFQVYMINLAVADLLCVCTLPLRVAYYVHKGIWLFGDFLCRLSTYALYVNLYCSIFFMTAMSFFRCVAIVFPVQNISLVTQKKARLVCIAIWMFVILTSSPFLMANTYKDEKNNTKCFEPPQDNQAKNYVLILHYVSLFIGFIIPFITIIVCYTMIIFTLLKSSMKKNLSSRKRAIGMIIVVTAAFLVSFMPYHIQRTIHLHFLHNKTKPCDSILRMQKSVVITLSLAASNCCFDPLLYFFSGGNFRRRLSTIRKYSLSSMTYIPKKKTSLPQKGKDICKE
Experiment: Antagonism of LTD4-evoked contraction of isolated guinea pig ileum (single concentration)
Type: cell-based
Details: 1 × 10^-6 M, pure LTD4, 5 minute exposure, read-out: Percent Inhibition of LTD4 evoked ileal contractions
Counter-ions that a name gives are not always drawn.
Endpoint Label: inhibition at 1 µM

>>> assay_value("CCCc1c(OCCCCCc2nnnn2CC(=O)O)ccc(C(C)=O)c1O")
"66%"
>>> assay_value("CCCc1c(OCCCCc2nnn[nH]2)ccc(C(C)=O)c1O")
"89%"
>>> assay_value("CCCc1c(OCCCCCCCCC(=O)O)ccc(C(C)=O)c1O")
"51%"
>>> assay_value("CCCc1c(OCCCCCCCCCC(=O)O)ccc(C(C)=O)c1O")
"46%"
>>> assay_value("CCCc1c(OCCCCCCSc2nn[nH]n2)ccc(C(C)=O)c1O")
"95%"
>>> assay_value("CCCc1c(OCCCSc2nn[nH]n2)ccc(C(C)=O)c1O")
"95%"
>>> assay_value("CCCc1c(OCCCCCc2nnn(CC(=O)O)n2)ccc(C(C)=O)c1O")
"69%"
>>> assay_value("CCCc1c(OCCCCSc2nn[nH]n2)ccc(C(C)=O)c1O")
"87%"
>>> assay_value("CCCc1c(OCCCCC(=O)NO)ccc(C(C)=O)c1O")
"28%"
>>> assay_value("CCCc1c(OCCCc2nnn[nH]2)ccc(C(C)=O)c1O")
"15%"
>>> assay_value("CCCc1c(OCCCCc2nnn[nH]2)ccc(C(=O)c2ccccc2)c1O")
"34%"
>>> assay_value("CCCc1c(OCCCCCCC(=O)O)ccc(C(C)=O)c1O")
"43%"
>>> assay_value("CCCc1c(OCCCCC(=O)N(C)C)ccc(C(C)=O)c1O")
"17%"
>>> assay_value("CCCc1c(OCCCCCCCSc2nn[nH]n2)ccc(C(C)=O)c1O")
"100%"
>>> assay_value("CCCc1c(OCCCCC(N)=O)ccc(C(C)=O)c1O")
"28%"
>>> assay_value("CCCc1c(OCCCCCCN)ccc(C(C)=O)c1O [Example 36, hydrochloride]")
"26%"
